# Test system: L1210 leukemia ip in BDF1 mice, survival T/C
# EXPERIMENTAL_DETAILS: NCI In Vivo Anticancer Drug Screen. Data for tumor model L1210 Leukemia (intraperitoneal) in B6D2F1 (BDF1) mice
# CONDITION_PARAMETERS: endpoint: mean survival time; dose: 100.0 mg/kg/injection; schedule: Q01DX001 (ip); vehicle: Klucel (hydroxypropylcellulose) (HPC); higher = longer survival
Toxic doses and inconclusive results are not listed.
MEASURE: T/C

{"columns": ["COMPOUND", "OBSERVED_RESULT"],
 "data": [
  ["Cc1c(N)nc(N)nc1C(=O)O", "105 % of control"],
  ["[O-]/[N+](C/[N+]([O-])=N\\OCCCl)=N\\OCCCl", "91 % of control"],
  ["COC(=O)C1CCC(NS(=O)(=O)c2ccc(C)cc2)CC1 (stereo not drawn)", "98 % of control"],
  ["CCOC(=O)c1ncc(Cl)cc1N", "106 % of control"],
  ["CC1(C)Cc2cccc(C(=O)CCCN3CCC4(CC3)C(=O)NCN4c3ccccc3)c2O1", "102 % of control"],
  ["CC1(C)c2ccccc2-c2nc3ccccc3nc2C1O (stereo not drawn)", "94 % of control"],
  ["Cc1ccc(N)cc1[N+](=O)[O-]", "105 % of control"],
  ["CC(C)(C)NC(=O)CCC1C2C=CC(C2)C1C(=O)NC(C)(C)C (stereo not drawn)", "97 % of control"],
  ["O=C(c1ccc([N+](=O)[O-])cc1)c1ccn[nH]1", "103 % of control"],
  ["CC1CC(C#N)Nc2ccccc2N1 (stereo not drawn)", "106 % of control"],
  ["O=c1cc[nH]c2n[nH]nc12", "94 % of control"],
  ["Nc1ncnc(N)c1NC(=O)c1ccc([N+](=O)[O-])cc1", "102 % of control"],
  ["COc1ccc(N=NS(=O)O)cc1", "98 % of control"]
]}

###

This section presents molecules with their documented T/C values.
# Tested on: L1210 leukemia ip in BDF1 mice, survival T/C
# EXPERIMENTAL_DETAILS: NCI In Vivo Anticancer Drug Screen. Data for tumor model L1210 Leukemia (intraperitoneal) in B6D2F1 (BDF1) mice
# CONDITION_PARAMETERS: endpoint: mean survival time; dose: 10.0 mg/kg/injection; schedule: Q01DX001 (ip); vehicle: saline; higher = longer survival
Inconclusive results and toxic doses are left out.
MEASURE: T/C

{"columns": ["INPUT_SMILES", "MEASURE", "OBSERVED_RESULT"],
 "data": [
  ["O=C(O)c1ccc(N/N=C\\c2cc(=O)[nH]c(=O)[nH]2)cc1", "T/C", "97 % of control"],
  ["CCP(CC)c1cccc(OC(=O)NC)c1", "T/C", "104 % of control"],
  ["C/C=C1\\C(=O)O[C@@]23C=C[C@H]4C(C(=O)OC)=CO[C@@H](O[C@H]12)[C@H]43", "T/C", "103 % of control"],
  ["Cc1cc(CSC(=N)N)c(CSC(=N)N)cc1C", "T/C", "97 % of control"]
]}

###

# Test system: L1210 leukemia ip in BDF1 mice, survival T/C
# EXPERIMENTAL_DETAILS: NCI In Vivo Anticancer Drug Screen. Data for tumor model L1210 Leukemia (intraperitoneal) in B6D2F1 (BDF1) mice
# CONDITION_PARAMETERS: endpoint: mean survival time; dose: 25.0 mg/kg/injection; schedule: Q04DX002 (ip); vehicle: saline; higher = longer survival
# Experimental: The antitumor activity of compounds was measured in mice bearing transplantable tumors. Survival or tumor size were measured and the results are expressed as the measurement made in the treated group (T) divided by the measurement made in the vehicle treated control group (C). The tumor model used in this assay is L1210 Leukemia (intraperitoneal) in B6D2F1 (BDF1) mice
Inconclusive results and toxic doses are left out.

{"columns": ["COMPOUND", "T/C"],
 "data": [
  ["NC(Cc1ccccc1)C(=O)CCl (centres undefined)", "105 % of control"],
  ["COc1cc2c(cc1OC)C1(NCC2)C(=O)Nc2c(C)cc(Cl)cc21 (centres undefined)", "103 % of control"],
  ["CC(C)C(N)C(=O)NCCCCC(N)C(=O)O (centres undefined)", "103 % of control"],
  ["C=CS(=O)Cc1ccccc1 (centres undefined)", "94 % of control"]
]}

Where do the numbers come from? From PubChem BioAssay AID248.
